test system: COLO 205 colon; experiment: NCI tumour cell line growth inhibition, 48 h
measured-property: TGI

molecule=CC(C)(C)c1cc([N+](=O)[O-])cc([N+](=O)[O-])c1O observed_result="> 10 µM"
molecule=CN(c1ccc(NC(=O)Nc2c(Cl)cccc2Cl)cc1)c1ccnc(Nc2cccc(CS(C)(=O)=O)c2)n1 observed_result="11.9 µM"
molecule=COc1ccc2c(c1)C(=O)CCc1cc(OC)c(OC)c(OC)c1-2 observed_result="16.9 µM"
molecule=CCC[CH2][Sn]([CH2]CCC)([O]C(=O)CN)[O]C(=O)CN observed_result="> 100 µM"
molecule="COc1ccc(C(C#N)NC23CC4CC(CC(C4)C2)C3)cc1 (configuration not stated)" observed_result="> 100 µM"
molecule=COc1cc(Nc2ncccc2C(=O)Nc2nc3ccc(F)cc3s2)cc(OC)c1OC observed_result="> 100 µM"
molecule="Cc1c(N2C(=O)C(Cl)C2/C=C/c2ccccc2)c(=O)n(-c2ccccc2)n1C (configuration not stated)" observed_result="28 µM"
